- Protocol text: photoluminescence quantum yield (fraction); solvent given as SMILES
- Test conditions: in CCCCCC
Measured endpoint: photoluminescence quantum yield
Response field accepts a number only; no unit should be typed.

Examples from the recorded data:
Compound: Cc1csc2[n+]1[B-](F)(F)n1c(c3cccc4cccc1c43)=N2
Measured endpoint: photoluminescence quantum yield
Obs value: 0.99

Compound: COc1cc(OC)cc(C2=[O+][B-](F)(F)OC(c3ccc4ccccc4c3)=C2)c1
Measured endpoint: photoluminescence quantum yield
Obs value: 0.19

Compound: N#Cc1cccc(N)c1
Measured endpoint: photoluminescence quantum yield
Obs value: 0.16

Query string: Which photoluminescence quantum yield is reported for this compound? CCCCN1C(=O)C(=C/C=C/C=C2N(CCCC)c3ccccc3N2CCCC)C(=O)N(CCCC)C1=S
Result string: 0.115

Query string: One more compound: N#Cc1ccc(-c2ccc3c(c2)c2cc(-c4ccc(C#N)cc4)ccc2c2c3nc(-c3ccc(-c4ccc(N(c5ccccc5)c5ccccc5)cc4)cc3)n2-c2ccccc2)cc1
Result string: 0.82

Query string: One more compound: CCC1=C(C)C2=C(c3c4ccccc4cc4ccccc34)c3c(C)c(CC)c(C)n3[B-](F)(F)[N+]2=C1C
Result string: 0.871

Data provenance: the Deep4Chem optical property database
